Source of measurements: paper PMC9103244

- test system: M. tuberculosis InhA (Mycobacterium tuberculosis, UniProt P9WGR1)
- Construct: made in house; host or cells: E. coli
- Sequence (P9WGR1 whole entry, looked up): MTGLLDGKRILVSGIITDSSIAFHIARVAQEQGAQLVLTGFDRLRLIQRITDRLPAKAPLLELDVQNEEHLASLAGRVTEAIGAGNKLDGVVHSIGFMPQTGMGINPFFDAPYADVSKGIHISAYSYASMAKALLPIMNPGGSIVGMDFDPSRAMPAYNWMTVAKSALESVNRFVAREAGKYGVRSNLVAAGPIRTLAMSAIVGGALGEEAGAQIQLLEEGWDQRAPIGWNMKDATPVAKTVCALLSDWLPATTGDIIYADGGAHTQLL
- assay remarks: InhA enzymatic inhibition assay (NADH oxidation at 340 nm)
- Format: biochemical
- particulars: 70 nM InhA, 2 h pre-incubation, pH 6.8, 25 °C, 35 μM trans-2-decenoyl-CoA, 200 μM NADH; read-out: IC50, inhibitory effect against InhA
pIC50: −log10 of the molar value.
quantity: pIC50

compound	result number
Sc1nnc(Cc2ccccc2)n1/N=C/c1cccc2c1OCO2 [4b]	8.04
C#CCSc1nnc(Cc2ccccc2)n1/N=C/c1ccc(N2CCOCC2)cc1 [5c]	9.64
Sc1nnc(Cc2ccccc2)n1/N=C/c1cccs1 [4a]	7.27
C#CCSc1nnc(Cc2ccccc2)n1/N=C/c1cccc2c1OCO2 [5b]	9.18
CC(=O)c1ccc(-n2cc(CSc3nnc(Cc4ccccc4)n3/N=C/c3ccc(N4CCOCC4)cc3)nn2)cc1 [7f]	9.60
C#CCSc1nnc(Cc2ccccc2)n1/N=C/c1cccs1 [5a]	8.25
O=C(O)c1ccc(-n2cc(CSc3nnc(Cc4ccccc4)n3/N=C/c3cccs3)nn2)cc1 [7a]	8.21
S=c1[nH]nc(Cc2ccccc2)n1/N=C/c1ccc(N2CCOCC2)cc1 [4c]	8.09

###

- test system: M. tuberculosis InhA (Mycobacterium tuberculosis)
- Construct: made in house; host or cells: E. coli
- assay remarks: InhA enzymatic inhibition assay (NADH oxidation at 340 nm)
- Type: biochemical
- particulars: read-out: IC50, inhibitory effect against InhA; 70 nM InhA, 2 h pre-incubation, pH 6.8, 25 °C, 35 μM trans-2-decenoyl-CoA, 200 μM NADH
pIC50: −log10 of the molar value.

substance smiles	pIC50
CC(=O)c1ccc(-n2cc(CSc3nnc(Cc4ccccc4)n3/N=C/c3cccc4c3OCO4)nn2)cc1	9.74

###

Below, each entry is listed with its recorded melting point.

molecule	units	melting point
O=C(O)c1ccc(-n2cc(CSc3nnc(Cc4ccccc4)n3/N=C/c3cccs3)nn2)cc1 [7a]	°C	196
CC(=O)c1ccc(-n2cc(CSc3nnc(Cc4ccccc4)n3/N=C/c3cccc4c3OCO4)nn2)cc1 [7d]	°C	196
CC(=O)c1ccc(-n2cc(CSc3nnc(Cc4ccccc4)n3/N=C/c3cccs3)nn2)cc1 [7b]	°C	196
